Kindly supply the reported self-aminoacylation values for the records listed here.
system: biotinyl-Trp-oxazolone; assay: self-aminoacylation, catalytic enhancement (BWO) (fold over background); higher = more active; k-Seq, kA / k0A0; sequences stand for … in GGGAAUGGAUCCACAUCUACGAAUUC…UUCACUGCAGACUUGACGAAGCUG
Fewer inactive variants are shown than the library holds.
Write no unit; give the number alone.

Data point: AAGUUUGCUAAUCGUCGCGAG [Fam3.1 aminoacylation ribozyme variant] ; self-aminoacylation = 1.49

Record CCACCCUUCAAGCUAUCGGUC [Fam1B.1 aminoacylation ribozyme variant] . Reported self-aminoacylation: 1.09

self-aminoacylation measured on UUUCUUCAAACAAUCGGUCUG [Fam1A.1 aminoacylation ribozyme variant] = 5.16

Note to self: self-aminoacylation recorded for AUUACCCUGAUCAUCCAGUGA [Fam2.1 aminoacylation ribozyme variant] was 7.09

So for CUACUUCAAAUAAUCGGUGUG [Fam1A.1 aminoacylation ribozyme variant] , the logged self-aminoacylation turned out to be 2.4

self-aminoacylation for AUAUCCCUGGUCAUCGAGUGA [Fam2.1 aminoacylation ribozyme variant] is 11.8

Sample CUACUUCAAACAAUCCGUGUG [Fam1A.1 aminoacylation ribozyme variant] ; self-aminoacylation observed: 2.52

Lookup result for AAGUUUGCUAAUAGUCGCUAC [Fam3.1 aminoacylation ribozyme variant] ; measured self-aminoacylation: 0.666

GET /value?item= AUUGACCUAGGUCAUCGGUUG [Fam2.2 aminoacylation ribozyme variant] &field=self-aminoacylation returns 1.65

// self-aminoacylation lookup, sequence = AAGUCUACUAAUAGUCGCAAG [Fam3.1 aminoacylation ribozyme variant] , result: 2.11

So, CCACACUUCAACCAAUCGGUU [Fam1B.1 aminoacylation ribozyme variant] ? Its self-aminoacylation was 11.9

Entry under test: AUUACCCUGGACAUCGAGGGA [Fam2.1 aminoacylation ribozyme variant] . Its self-aminoacylation was 2.17

get_value(item= AUUCACCUAAGUCAUUGGGUG [Fam2.2 aminoacylation ribozyme variant] , readout=self-aminoacylation) returns 2.6

Documented self-aminoacylation of CCACACUCCAAGCAAUCAGUC [Fam1B.1 aminoacylation ribozyme variant] : 0.672

Form field self-aminoacylation, entry AUGCACGUAGGUCAUCGGGUG [Fam2.2 aminoacylation ribozyme variant] : 5.33

self-aminoacylation measured on CUACUUCAAACAAUCCGUCUC [Fam1A.1 aminoacylation ribozyme variant] = 0.858

What the record says about AUUACCCUGGUCAUCUAAUGA [Fam2.1 aminoacylation ribozyme variant] : self-aminoacylation is 0.586

For this sequence ( AAUACCCUGGUCAUUGAGUGA [Fam2.1 aminoacylation ribozyme variant] ), measured self-aminoacylation is 6.33
